Reported peptide exchange yield by item:
target: T1, HLA-A*02:01 (human); test: UV-ligand exchange ELISA (anti-β2m), peptide exchange yield grade
T1 construct: MHC class I monomer made peptide-receptive by UV cleavage of a UV-sensitive ligand; also called peptide-receptive MHC molecules

[
  {
    "binder": "RLQETEGMVAV [peptide RLQETEGMVAV (SEQ ID NO: 171)]",
    "peptide exchange yield": "20 to 50%"
  }
]

[in] Respond only with peptide exchange yield recorded for KLLAVIHEL (also called RAD54B-002) [peptide KLLAVIHEL (SEQ ID NO: 152)]
[out] 20 to 50%

[in] Respond only with peptide exchange yield recorded for SAQGSDVSLTACKV [peptide SAQGSDVSLTACKV (SEQ ID NO: 151)]
[out] 50 to 75%

[in] Respond only with peptide exchange yield recorded for QLFSEIHNL [peptide QLFSEIHNL (SEQ ID NO: 191)]
[out] ≥ 75%

[in] Respond only with peptide exchange yield recorded for ILYQTVTGL [peptide ILYQTVTGL (SEQ ID NO: 119)]
[out] 20 to 50%
